system: P. aeruginosa ATCC 27853; assay type: cell-based, Pseudomonas aeruginosa
Where a SMILES comes first, the peptide text is derived from it.
Quantity kind: MIC

CC[C@H](C)[C@H](NC(=O)[C@H](C)NC(=O)[C@H](CCCCN)NC(=O)CNC(=O)[C@@H](NC(=O)[C@H](CC(C)C)NC(=O)[C@H](C)NC(=O)[C@H](CC(C)C)NC(=O)[C@H](C)NC(=O)[C@H](CC(C)C)NC(=O)[C@@H](N)Cc1ccccc1)[C@@H](C)CC)C(=O)N[C@@H](C)C(=O)N[C@@H](CCCCN)C(=O)N[C@@H](CC(C)C)C(=O)N[C@@H](CCCCN)C(N)=O [QUB-1570] (H-FLALALIGKAIAKLK-NH2) | > 128 µM
CC[C@H](C)[C@H](NC(=O)[C@H](C)NC(=O)[C@H](CCC(=O)O)NC(=O)[C@H](CCC(N)=O)NC(=O)[C@@H](NC(=O)[C@H](CC(C)C)NC(=O)[C@H](CCCCN)NC(=O)CNC(=O)[C@H](C)NC(=O)[C@H](CC(C)C)NC(=O)[C@@H](N)Cc1ccccc1)[C@@H](C)CC)C(=O)N[C@@H](C)C(=O)N[C@@H](CCCCN)C(=O)N[C@@H](CC(C)C)C(=O)N[C@@H](CCCCN)C(N)=O [QUB-1643] (H-FLAGKLIQEAIAKLK-NH2) | > 128 µM

Note MIC for the compound shown: CC[C@H](C)[C@H](NC(=O)[C@H](C)NC(=O)[C@H](CCC(=O)O)NC(=O)[C@H](CCC(N)=O)NC(=O)[C@@H](NC(=O)[C@H](CC(C)C)NC(=O)[C@H](C)NC(=O)[C@H](CC(C)C)NC(=O)[C@H](C)NC(=O)[C@H](CC(C)C)NC(=O)[C@@H](N)Cc1ccccc1)[C@@H](C)CC)C(=O)N[C@@H](C)C(=O)N[C@@H](CCCCN)C(=O)N[C@@H](CC(C)C)C(=O)N[C@@H](CCCCN)C(N)=O [QUB-1641] (H-FLALALIQEAIAKLK-NH2)
> 128 µM
